Here, each record is paired with measured inhibition at 0.5 µM data.
tested on: IL-6; test: Inhibition of LPS-induced IL-6 secretion of THP-1 monocytes (ELISA); type: cell-based, human; conditions: Homo sapiens, THP-1; compound 0.5 μM, LPS 500 ng/mL, 24 hours; read-out: THP1/IL6 (% inhib)
Write it as a number; the unit % goes unstated.

Here is how some compounds turned out for inhibition at 0.5 µM.
• O=C(c1ccc(Nc2nc(N[C@@H]3CCOC3)c3c(C(F)(F)F)c[nH]c3n2)c2c1OCCO2)N1CCN(C2COC2)CC1 [Example 416] = 45.6
• CC(C)CNc1nc(Nc2ccc(C(=O)N3CCC(N4CCOCC4)CC3)c3c2OCC3)nc2[nH]cc(C(F)(F)F)c12 [Example 448] = 26.2
• CCNc1nc(Nc2ccc(C(=O)N3CCOCC3)c3c2OCO3)nc2[nH]cc(C(F)(F)F)c12 [Example 212] = 12.6

Now examine the next entry.
Input line: Recall the recorded inhibition at 0.5 µM for CCNc1nc(Nc2ccc(C(=O)N3CCC(N4CCOCC4)CC3)c3c2OCC3)nc2[nH]cc(C#N)c12 [Example 347] with IL-6 and state it.
Output line: 14.1

###

Molecular target: LRRK2 (G2019S) (Homo sapiens, UniProt Q5S007, G2019S)
Sequence (Q5S007 970-2527 G2019S limits assumed): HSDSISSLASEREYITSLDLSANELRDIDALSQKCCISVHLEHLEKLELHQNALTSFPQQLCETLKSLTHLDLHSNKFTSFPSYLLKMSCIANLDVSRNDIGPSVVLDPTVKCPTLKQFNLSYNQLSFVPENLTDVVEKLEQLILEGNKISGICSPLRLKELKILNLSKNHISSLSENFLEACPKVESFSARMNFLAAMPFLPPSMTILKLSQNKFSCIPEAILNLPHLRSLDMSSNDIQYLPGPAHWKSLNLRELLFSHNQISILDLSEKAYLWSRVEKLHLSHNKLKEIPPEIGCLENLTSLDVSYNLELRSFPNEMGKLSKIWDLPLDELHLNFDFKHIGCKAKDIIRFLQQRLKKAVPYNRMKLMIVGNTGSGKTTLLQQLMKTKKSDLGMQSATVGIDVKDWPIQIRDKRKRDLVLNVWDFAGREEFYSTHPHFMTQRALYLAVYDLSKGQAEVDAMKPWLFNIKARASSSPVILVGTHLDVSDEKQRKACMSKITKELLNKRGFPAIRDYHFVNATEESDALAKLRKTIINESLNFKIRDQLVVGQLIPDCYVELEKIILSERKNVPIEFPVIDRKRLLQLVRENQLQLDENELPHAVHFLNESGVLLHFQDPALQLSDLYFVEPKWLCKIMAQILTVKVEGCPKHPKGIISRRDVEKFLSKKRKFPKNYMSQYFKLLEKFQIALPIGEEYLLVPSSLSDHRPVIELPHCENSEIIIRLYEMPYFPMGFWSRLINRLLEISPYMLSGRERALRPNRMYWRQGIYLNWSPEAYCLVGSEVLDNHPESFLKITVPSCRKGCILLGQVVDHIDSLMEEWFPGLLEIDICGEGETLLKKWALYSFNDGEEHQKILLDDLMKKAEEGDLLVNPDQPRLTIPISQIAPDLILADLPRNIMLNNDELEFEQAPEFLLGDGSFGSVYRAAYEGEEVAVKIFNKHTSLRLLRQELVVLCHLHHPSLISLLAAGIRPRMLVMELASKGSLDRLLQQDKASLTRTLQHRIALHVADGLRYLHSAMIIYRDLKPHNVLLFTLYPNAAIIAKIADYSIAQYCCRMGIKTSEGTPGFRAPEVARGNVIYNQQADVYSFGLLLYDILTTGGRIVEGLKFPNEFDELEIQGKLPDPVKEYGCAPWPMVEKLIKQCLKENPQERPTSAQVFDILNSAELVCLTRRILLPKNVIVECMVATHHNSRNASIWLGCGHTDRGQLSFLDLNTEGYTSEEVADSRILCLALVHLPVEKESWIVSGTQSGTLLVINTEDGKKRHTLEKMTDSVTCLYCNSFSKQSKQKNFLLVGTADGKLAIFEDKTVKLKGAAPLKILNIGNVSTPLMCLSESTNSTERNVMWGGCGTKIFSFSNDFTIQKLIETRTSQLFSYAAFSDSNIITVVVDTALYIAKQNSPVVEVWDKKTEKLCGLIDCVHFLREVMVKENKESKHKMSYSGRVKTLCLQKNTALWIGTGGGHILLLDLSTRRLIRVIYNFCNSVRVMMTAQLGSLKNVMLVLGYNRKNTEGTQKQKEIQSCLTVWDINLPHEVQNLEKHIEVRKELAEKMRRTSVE
Test: LRRK2 G2019S enzyme inhibition, ADP-Glo kinase assay
Type: biochemical
Set-up: purchased SignalChem L10-12GG
Settings: ATP 25 μM
Method: To evaluate an inhibitory activity of the compound according to the present invention against LRRK2, LRRK2 (G2019S), DYRK1, CLK1, and TTK kinases, experiments were performed as follows. Each of the Example compounds was reacted with a purified human LRRK2 G2019S (L10-12GG, SignalChem) enzyme to evaluate an ability to inhibit an enzyme using a method as described below. […]
pIC50: −log10 of the molar value.
Here, each record is paired with measured pIC50 data.

Input line: Looking for the measured pIC50 of O=C(c1ccc(Nc2nc(NCC3CCCC3)c3c(C(F)(F)F)c[nH]c3n2)c2c1OCCO2)N1CCN(C2COC2)CC1 , can you help?
Output line: > 7.00

Input line: Looking for the measured pIC50 of CC[C@H](C)Nc1nc(Nc2ccc(P(C)(C)=O)cc2OC)nc2[nH]cc(C(F)(F)F)c12 , can you help?
Output line: > 7.00

Input line: Looking for the measured pIC50 of CCCCNc1nc(Nc2ccc(S(=O)(=O)N3CCC(N4CCOCC4)CC3)cc2OC)nc2[nH]cc(C#N)c12 , can you help?
Output line: > 7.00

Input line: Looking for the measured pIC50 of COc1cc(P(C)(C)=O)ccc1Nc1nc(NCC2CCCC2)c2c(C(F)(F)F)c[nH]c2n1 , can you help?
Output line: 6.00 to 6.52

Input line: Looking for the measured pIC50 of COc1cc(S(=O)(=O)N2CCOCC2)ccc1Nc1nc(N[C@@H]2CCOC2)c2c(C(F)(F)F)c[nH]c2n1 , can you help?
Output line: > 7.00

Input line: Looking for the measured pIC50 of COc1cc(S(=O)(=O)N2CCOCC2)ccc1Nc1nc(NC2CCCC2)c2c(C#N)c[nH]c2n1 , can you help?
Output line: 6.00 to 6.52

Input line: Looking for the measured pIC50 of O=C(c1ccc(Nc2nc(N[C@H]3CCOC3)c3c(C(F)(F)F)c[nH]c3n2)c2c1OCCO2)N1CCN(C2COC2)CC1 , can you help?
Output line: > 7.00
